Entries and their Inhibition of ligand binding, Serotonin 5-HT2A (percent inhibition of specific binding) values follow.
# subject_of_test: human recombinant serotonin (5-Hydroxytryptamine) 5-HT2A receptor (Homo sapiens, UniProt P28223)
# Construct: expressed in transfected cells; host or cells: Chinese hamster ovary (CHO-K1) cells
# Sequence (P28223 whole entry): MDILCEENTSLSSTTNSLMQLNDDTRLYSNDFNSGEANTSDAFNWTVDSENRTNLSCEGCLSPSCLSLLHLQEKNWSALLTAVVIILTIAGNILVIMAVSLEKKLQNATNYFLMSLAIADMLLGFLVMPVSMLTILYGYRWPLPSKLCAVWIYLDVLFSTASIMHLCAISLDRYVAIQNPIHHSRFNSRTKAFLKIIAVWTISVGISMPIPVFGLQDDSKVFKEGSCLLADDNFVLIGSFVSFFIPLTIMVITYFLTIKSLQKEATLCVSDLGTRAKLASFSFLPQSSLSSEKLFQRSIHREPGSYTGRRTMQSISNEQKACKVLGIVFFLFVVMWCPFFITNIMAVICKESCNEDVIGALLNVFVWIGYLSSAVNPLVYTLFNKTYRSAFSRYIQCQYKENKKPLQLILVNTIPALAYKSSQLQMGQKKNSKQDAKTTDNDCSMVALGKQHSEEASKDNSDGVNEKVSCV
# experimental_details: Serotonin 5-HT2A radioligand binding ([3H]Ketanserin)
# test_parameters: compound at 1 μM; 1 µM
observed_property: Inhibition of ligand binding, Serotonin 5-HT2A (percent inhibition of specific binding) (%)

molecule: C/C(=C\n1c2c(c3cc(Cl)ccc31)CN(C)CC2)c1ccc(Cl)cc1Cl [Compound 210]
unit_string: %
value_measured: 98
--
molecule: CN1CCc2c(c3cc(Cl)ccc3n2C/C(=C\CCO)c2ccc(F)cc2)C1 [Compound No. 348]
unit_string: %
value_measured: 100
--
molecule: C/C(=C\n1c2c(c3cc(C)ccc31)CN(C)CC2)c1ccncc1 [Compound 88]
unit_string: %
value_measured: 101
--
molecule: COc1ccc(C(C)(O)Cn2c3c(c4cc(C)ccc42)CN(C)CC3)cc1 (centres unmarked) [Compound 174]
unit_string: %
value_measured: 100
--
molecule: CN1CCc2c(c3cc(Cl)ccc3n2C/C(=C/CCO)c2ccc(F)cc2)C1 [Compound No. 349]
unit_string: %
value_measured: 100

====

# subject_of_test: human recombinant serotonin (5-Hydroxytryptamine) 5-HT6 receptor (Homo sapiens, UniProt P50406)
# Construct: expressed in transfected cells; host or cells: human HeLa cells
# Sequence (P50406 whole entry): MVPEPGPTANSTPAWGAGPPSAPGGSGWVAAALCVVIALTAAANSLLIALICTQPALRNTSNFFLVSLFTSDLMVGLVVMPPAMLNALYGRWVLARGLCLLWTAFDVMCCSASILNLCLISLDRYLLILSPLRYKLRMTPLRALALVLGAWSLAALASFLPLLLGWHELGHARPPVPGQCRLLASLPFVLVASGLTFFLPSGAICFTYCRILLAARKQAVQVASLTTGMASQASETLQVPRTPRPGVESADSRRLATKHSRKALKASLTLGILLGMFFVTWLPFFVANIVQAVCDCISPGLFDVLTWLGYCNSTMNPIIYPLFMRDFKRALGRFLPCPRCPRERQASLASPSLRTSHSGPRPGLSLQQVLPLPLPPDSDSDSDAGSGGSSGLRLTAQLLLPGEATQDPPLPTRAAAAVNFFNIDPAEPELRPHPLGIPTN
# experimental_details: Serotonin 5-HT6 radioligand binding ([3H]LSD)
# test_parameters: compound at 1 μM; read-out: Inhibition of ligand binding, Serotonin 5-HT6 (percent inhibition of specific binding)
Label yes (1) when inhibition at 1 µM is at or above 90%; anything below gets no (0).

compound: Cc1ccc2c(c1)c1c(n2CC(O)c2ccc(F)cc2)CCN(C)C1 (stereo not drawn) [Compound 172]
label: yes (1)
//
compound: COc1ccc(/C(C)=C/n2c3c(c4cc(Cl)ccc42)CN(C)CC3)cc1F [Compound 93]
label: yes (1)
//
compound: C/C(=C\n1c2c(c3cc(Cl)ccc31)CN(C)CC2)c1ccccc1F [Compound 213]
label: yes (1)
//
compound: CNC(=O)C/C(=C\n1c2c(c3cc(C)ccc31)CN(C)CC2)c1ccc(F)cc1 [Compound 207]
label: no (0)
//
compound: Cc1ccc(C(C)(O)Cn2c3c(c4cc(Cl)ccc42)CN(C)CC3)cn1 (stereo not drawn) [Compound 47]
label: no (0)
//
compound: CC(=Cn1c2c(c3cc(Cl)ccc31)CN(C)CC2)c1ccc(Cl)cc1Cl (stereo in doubt) [Compound 111]
label: yes (1)
//
compound: Cc1ccc2c(c1)c1c(n2CC(O)(c2ccc(F)cc2)C2CCCCC2)CCN(C)C1 (stereo not drawn) [Compound 171]
label: yes (1)
//
compound: C/C(=C\n1c2c(c3cc(C)ccc31)CN(C)CC2)c1cc(Cl)cc(Cl)c1 [Compound 218]
label: yes (1)
//
compound: C/C(=C\n1c2c(c3cc(C)ccc31)CN(C)CC2)c1ccncc1 [Compound 88]
label: yes (1)
//
compound: Cc1ccc2c(c1)c1c(n2CC(O)c2cccnc2)CCN(C)C1 (stereo not drawn) [Compound 54]
label: no (0)
//
compound: CCOC(=O)/C=C(/Cn1c2c(c3cc(C)ccc31)CN(C)CC2)c1ccc(F)cc1 [Compound No. 350]
label: yes (1)
//
compound: C/C(=C\n1c2c(c3ccccc31)CN(C)CC2)c1ccncc1 [Compound 217]
label: yes (1)
//
compound: C/C(=C/n1c2c(c3cc(Cl)ccc31)CN(C)CC2)c1cccc(F)c1 [Compound 233]
label: yes (1)
//
compound: CN1CCc2c(c3cc(Cl)ccc3n2CC(O)c2ccncc2)C1 (stereo not drawn) [Compound 183]
label: no (0)
//
compound: C/C(=C/n1c2c(c3cc(C)ccc31)CN(C)CC2)c1ccccc1Cl [Compound 242]
label: yes (1)
//
compound: CN1CCc2c(c3cc(F)ccc3n2CC(C)(O)c2ccncc2)C1 (stereo not drawn) [Compound 181]
label: no (0)
//
compound: C=C(Cn1c2c(c3cc(Cl)ccc31)CN(C)CC2)c1cccnc1 [Compound 133]
label: no (0)
//
compound: CN1CCc2c(c3cc(Cl)c(Cl)cc3n2CC(C)(O)c2ccncc2)C1 (stereo not drawn) [Compound 189]
label: no (0)

====

Entries and their inhibition at 0.1 µM values follow.
# subject_of_test: human recombinant serotonin (5-Hydroxytryptamine) 5-HT6 receptor (Homo sapiens, UniProt P50406)
# Construct: expressed in transfected cells; host or cells: human HeLa cells
# experimental_details: Serotonin 5-HT6 radioligand binding ([3H]LSD)
# test_parameters: compound at 0.1 μM; read-out: Inhibition of ligand binding, Serotonin 5-HT6 (percent inhibition of specific binding)

compound: C=C(Cn1c2c(c3cc(Cl)ccc31)CN(C)CC2)c1ccc(F)cc1 [Compound 128]
unit_string: %
inhibition at 0.1 µM: 94

compound: Cc1ccc2c(c1)c1c(n2CC(C)(O)c2ccncn2)CCN(C)C1 (centres unmarked) [Compound 197]
unit_string: %
inhibition at 0.1 µM: 4

compound: C/C(=C\n1c2c(c3ccc(Cl)cc31)CN(C)CC2)c1ccc(C)nc1 [Compound 253]
unit_string: %
inhibition at 0.1 µM: 9

compound: C/C(=C\n1c2c(c3cc(Cl)ccc31)CN(C)CC2)c1ccc(Cl)cc1 [Compound 100]
unit_string: %
inhibition at 0.1 µM: 62

compound: C/C(=C\n1c2c(c3cccc(F)c31)CN(C)CC2)c1ccc(C)nc1 [Compound 260]
unit_string: %
inhibition at 0.1 µM: -7

compound: C/C(=C\n1c2c(c3cc(OC(F)(F)F)ccc31)CN(C)CC2)c1ccncc1 [Compound 263]
unit_string: %
inhibition at 0.1 µM: 99

compound: C/C(=C\n1c2c(c3cc(C)ccc31)CN(C)CC2)c1ccc(F)cc1F [Compound 276]
unit_string: %
inhibition at 0.1 µM: 81

compound: CC/C(=C/n1c2c(c3cc(Cl)ccc31)CN(C)CC2)c1ccncc1 [Compound 282]
unit_string: %
inhibition at 0.1 µM: 102

compound: C/C(=C/n1c2c(c3cc(C)ccc31)CN(C)CC2)c1ccncc1 [Compound 224]
unit_string: %
inhibition at 0.1 µM: 96

compound: C/C(=C\n1c2c(c3ccc(Cl)cc31)CN(C)CC2)c1ccncc1 [Compound 219]
unit_string: %
inhibition at 0.1 µM: 96

compound: Cc1ccc(C(O)Cn2c3c(c4cc(C)ccc42)CN(C)CC3)cc1 (racemic) [Compound 43]
unit_string: %
inhibition at 0.1 µM: 62

compound: C/C(=C\n1c2c(c3ccc(C(F)(F)F)cc31)CN(C)CC2)c1ccc(C)nc1 [Compound 250]
unit_string: %
inhibition at 0.1 µM: 13

compound: C/C(=C\n1c2c(c3cc(C(C)(C)C)ccc31)CN(C)CC2)c1ccncc1 [Compound 271]
unit_string: %
inhibition at 0.1 µM: 90

compound: C/C(=C\n1c2c(c3cc(F)ccc31)CN(C)CC2)c1ccncc1 [Compound 216]
unit_string: %
inhibition at 0.1 µM: 100

compound: CC(=Cn1c2c(c3cc(Cl)ccc31)CN(C)CC2)c1ccc(F)cc1F (stereo in doubt) [Compound 107]
unit_string: %
inhibition at 0.1 µM: 97

compound: C/C(=C/n1c2c(c3cc(C)ccc31)CN(C)CC2)c1ccc(F)cc1F [Compound 274]
unit_string: %
inhibition at 0.1 µM: 97

compound: C/C(=C\n1c2c(c3cc(C)ccc31)CN(C)CC2)c1cc(Cl)cc(Cl)c1 [Compound 218]
unit_string: %
inhibition at 0.1 µM: 85

====

# subject_of_test: rat adrenergic α1B receptor (Rattus norvegicus, UniProt P15823)
# Construct: from tissue; host or cells: Wistar rat liver
# Sequence (P15823 1-515): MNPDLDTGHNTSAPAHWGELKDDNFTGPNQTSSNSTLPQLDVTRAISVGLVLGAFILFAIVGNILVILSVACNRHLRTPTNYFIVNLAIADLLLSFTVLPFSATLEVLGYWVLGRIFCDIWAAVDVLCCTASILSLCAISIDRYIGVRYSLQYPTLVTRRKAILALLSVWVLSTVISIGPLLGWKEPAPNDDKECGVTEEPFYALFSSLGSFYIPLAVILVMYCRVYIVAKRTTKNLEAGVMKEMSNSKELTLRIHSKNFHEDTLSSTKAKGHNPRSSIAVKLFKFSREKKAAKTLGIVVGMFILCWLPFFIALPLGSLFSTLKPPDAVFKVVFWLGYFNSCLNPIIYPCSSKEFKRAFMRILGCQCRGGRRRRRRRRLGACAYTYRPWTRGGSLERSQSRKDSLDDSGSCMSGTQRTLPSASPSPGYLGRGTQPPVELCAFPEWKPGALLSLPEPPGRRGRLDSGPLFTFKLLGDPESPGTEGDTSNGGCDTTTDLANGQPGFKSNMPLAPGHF
# experimental_details: Adrenergic α1B radioligand binding ([3H]Prozosin)
# test_parameters: percent inhibition of specific binding; compound at 1 μM; read-out: Inhibition of ligand binding, Adrenergic α1B

compound: C/C(=C\n1c2c(c3cc(Cl)ccc31)CN(C)CC2)c1ccc(F)cc1
inhibition at 1 µM (%): 96
--
compound: CCN1CCc2c(c3ccccc3n2CC(O)c2ccc(C)cc2)C1 (racemic)
inhibition at 1 µM (%): 38
--
compound: CCN1CCc2c(c3cc(C)ccc3n2CC(O)c2ccc(C)cc2)C1 (racemic)
inhibition at 1 µM (%): 95
--
compound: Cc1ccc(C(O)Cn2c3c(c4cc(C)ccc42)CN(C)CC3)cc1 (racemic)
inhibition at 1 µM (%): 97
--
compound: Cc1ccc(C(O)Cn2c3c(c4ccccc42)CN(C)CC3)cc1 (racemic)
inhibition at 1 µM (%): 66
